Origin of values: patent EP0907632B1

- Test Target: MMP-2 (Homo sapiens)
- Sequence (P08253 110-660): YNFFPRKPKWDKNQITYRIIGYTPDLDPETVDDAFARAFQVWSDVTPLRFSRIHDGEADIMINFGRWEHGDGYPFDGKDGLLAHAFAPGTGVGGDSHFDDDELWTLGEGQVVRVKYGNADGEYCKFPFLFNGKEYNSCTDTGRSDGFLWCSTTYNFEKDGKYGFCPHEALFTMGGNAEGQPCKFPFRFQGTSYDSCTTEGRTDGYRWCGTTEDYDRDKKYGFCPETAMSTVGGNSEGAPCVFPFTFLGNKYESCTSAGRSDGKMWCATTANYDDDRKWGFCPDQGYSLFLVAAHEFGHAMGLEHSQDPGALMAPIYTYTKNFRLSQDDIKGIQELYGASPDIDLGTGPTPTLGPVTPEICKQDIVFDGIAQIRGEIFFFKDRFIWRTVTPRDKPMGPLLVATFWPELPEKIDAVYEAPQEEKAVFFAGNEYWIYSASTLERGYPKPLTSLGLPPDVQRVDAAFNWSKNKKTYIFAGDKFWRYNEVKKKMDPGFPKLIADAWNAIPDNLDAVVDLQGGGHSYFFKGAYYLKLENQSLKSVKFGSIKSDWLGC
// reported pKi for each item listed
Note on units: pKi is unitless, being -log10 of a concentration expressed in mol/L.

Compound	pKi
O=C(CC(CCc1cccc(C(=O)N2CCCCC2)c1)C(=O)O)c1ccc(-c2ccc(OCc3ccccc3)cc2)cc1 (centres unmarked)	8.35
O=C(CC(CCc1cccc(C(=O)NCCc2ccccc2)c1)C(=O)O)c1ccc(-c2ccc(Cl)cc2)cc1 (centres unmarked)	6.90

Form field - read-out: pKi; system: MMP-2 (Homo sapiens); submitted item: CCOC(=O)CN(C)C(=O)c1ccccc1CCC(CC(=O)c1ccc(-c2ccc(Cl)cc2)cc1)C(=O)O (centres unmarked)
7.76

Observed pKi on MMP-2 (Homo sapiens) for O=C(CC(CCc1ccc(C(=O)N2CCCCC2)cc1)C(=O)O)c1ccc(-c2ccc(Cl)cc2)cc1 (centres unmarked) , please.
7.08

Request - read-out pKi | tested on MMP-2 (Homo sapiens) | compound O=C(O)CNC(=O)c1ccccc1CCC(CC(=O)c1ccc(-c2ccc(Cl)cc2)cc1)C(=O)O (centres unmarked)
7.02

Item CCOC(=O)CNC(=O)c1ccccc1CCC(CC(=O)c1ccc(-c2ccc(Cl)cc2)cc1)C(=O)O (centres unmarked) with MMP-2 (Homo sapiens) - pKi?
7.25

Provide the documented pKi with MMP-2 (Homo sapiens) as the system for CCOC(=O)CNC(=O)c1ccc(CCC(CC(=O)c2ccc(-c3ccc(Cl)cc3)cc2)C(=O)O)cc1 (centres unmarked)
7.08

Which measured pKi belongs to O=C(CC(CCc1ccccc1C(=O)NCc1ccccc1)C(=O)O)c1ccc(-c2ccc(Cl)cc2)cc1 (centres unmarked) , tested on MMP-2 (Homo sapiens)?
7.22

====

The next entries give measured Ki for UniProt P08254.
Write the number in nM without appending the unit.

Illustrative cases are given below, each with its answer.
Compound	Ki, nM
CCOC(=O)CN(C)C(=O)c1cccc(CCC(CC(=O)c2ccc(-c3ccc(Cl)cc3)cc2)C(=O)O)c1 (stereo not shown)	24.8
CC(C)CCNC(=O)c1ccc(CCC(CC(=O)c2ccc(-c3ccc(Cl)cc3)cc2)C(=O)O)cc1 (stereo not shown)	677
O=C(CC(CCc1cccc(C(=O)N2CCCCC2)c1)C(=O)O)c1ccc(-c2ccc(OCc3ccccc3)cc2)cc1 (stereo not shown)	12.5
O=C(CC(CCc1cccc(C(=O)NCCCc2ccccc2)c1)C(=O)O)c1ccc(-c2ccc(Cl)cc2)cc1 (stereo not shown)	236
O=C(CC(CCc1ccccc1C(=O)NCCCc1ccccc1)C(=O)O)c1ccc(-c2ccc(Cl)cc2)cc1 (stereo not shown)	175
CC(C)CCNC(=O)c1ccccc1CCC(CC(=O)c1ccc(-c2ccc(Cl)cc2)cc1)C(=O)O (stereo not shown)	214

Give its Ki value. Item: O=C(O)CCNC(=O)c1ccccc1CCC(CC(=O)c1ccc(-c2ccc(Cl)cc2)cc1)C(=O)O (stereo not shown)
166

Consider the compound shown here: O=C(CC(CCc1ccccc1C(=O)N1CCCCC1)C(=O)O)c1ccc(-c2ccc(Cl)cc2)cc1 (stereo not shown) What is its recorded Ki?
54.7

I would be grateful if you could share the reported Ki for O=C(CC(CCc1ccc(C(=O)N2CCCCC2)cc1)C(=O)O)c1ccc(-c2ccc(Cl)cc2)cc1 (stereo not shown) .
242

Record request: Ki value, item CCOC(=O)CN(C)C(=O)c1ccccc1CCC(CC(=O)c1ccc(-c2ccc(Cl)cc2)cc1)C(=O)O (stereo not shown)
43.6

====

Measured pKi, listed per entry for reference.
- Test Target: MMP-3 (Homo sapiens, UniProt P08254)
- Sequence (P08254 100-477): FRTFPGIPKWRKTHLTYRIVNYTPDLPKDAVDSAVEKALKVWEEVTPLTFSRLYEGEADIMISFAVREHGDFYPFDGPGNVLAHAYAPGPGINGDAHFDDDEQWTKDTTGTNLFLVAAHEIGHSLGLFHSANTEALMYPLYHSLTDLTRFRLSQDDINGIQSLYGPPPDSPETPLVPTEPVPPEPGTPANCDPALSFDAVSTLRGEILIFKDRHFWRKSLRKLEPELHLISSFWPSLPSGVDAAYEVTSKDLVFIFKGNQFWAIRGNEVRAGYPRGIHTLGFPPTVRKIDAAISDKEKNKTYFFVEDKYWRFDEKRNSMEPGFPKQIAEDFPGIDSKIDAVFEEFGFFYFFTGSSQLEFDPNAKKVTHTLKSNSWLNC
Keep it numeric: pKi is minus log10 of the concentration in mol/L.

Compound	pKi
O=C(CC(CCc1ccccc1C(=O)NCc1ccccc1)C(=O)O)c1ccc(-c2ccc(Cl)cc2)cc1 (centres unmarked)	6.76
O=C(CC(CCc1cccc(C(=O)NCCc2ccccc2)c1)C(=O)O)c1ccc(-c2ccc(Cl)cc2)cc1 (centres unmarked)	6.35
O=C(O)CNC(=O)c1ccccc1CCC(CC(=O)c1ccc(-c2ccc(Cl)cc2)cc1)C(=O)O (centres unmarked)	6.59

Recorded pKi for O=C(CC(CCc1cccc(C(=O)N2CCOCC2)c1)C(=O)O)c1ccc(-c2ccc(Cl)cc2)cc1 (centres unmarked) , please?
7.13

I am curious: what pKi value has been reported for CC(C)CCNC(=O)c1cccc(CCC(CC(=O)c2ccc(-c3ccc(Cl)cc3)cc2)C(=O)O)c1 (centres unmarked) ?
6.51

====

List of pKi tested on MMP-3 (Homo sapiens, UniProt P08254).
Quick note: pKi means taking -log10 of the concentration in moles per liter.

Example results:
Compound	Test Target	pKi
O=C(O)CNC(=O)c1ccc(CCC(CC(=O)c2ccc(-c3ccc(Cl)cc3)cc2)C(=O)O)cc1 (stereo not drawn)	MMP-3 (Homo sapiens, UniProt P08254)	6.53
CCCCCOc1ccc(-c2ccc(C(=O)CC(CCc3cccc(C(=O)N4CCCCC4)c3)C(=O)O)cc2)cc1 (stereo not drawn)	MMP-3 (Homo sapiens, UniProt P08254)	7.45

Now examine the next entry.
I'd like to know its pKi. The compound in question is O=C(CC(CCc1ccccc1C(=O)NCCc1ccccc1)C(=O)O)c1ccc(-c2ccc(Cl)cc2)cc1 (stereo not drawn)
6.90
